Kindly supply the reported Percent RBC Binding to CD33 values for the records listed here.
# testedTarget: T1, human CD33 Fc fusion protein (human, UniProt P20138 18-259)
# T1 construct: also called hCD33-Fc; human CD33/Fc chimera (R&D Systems)
# T1 sequence (P20138 18-259 limits assumed): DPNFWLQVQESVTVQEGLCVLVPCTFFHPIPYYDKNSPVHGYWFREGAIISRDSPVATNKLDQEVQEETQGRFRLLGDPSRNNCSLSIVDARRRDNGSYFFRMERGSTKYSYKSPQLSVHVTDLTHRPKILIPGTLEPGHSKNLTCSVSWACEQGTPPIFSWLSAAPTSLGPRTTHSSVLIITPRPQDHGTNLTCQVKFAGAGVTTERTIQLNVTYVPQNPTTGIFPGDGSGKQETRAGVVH
# assayName: RBC adhesion to plate-bound CD33-Fc; antibody 0.5 ug/ml;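 note: Plate-coated CD33-Fc preincubated 1 h with antibody, then red blood cells added for 1 h at room temperature, adherent cells lysed and quantified via peroxidase activity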
Give the quantity in %, number only.

# Percent RBC Binding to CD33 lookup, item C-88 (antibody, V domains shown, human IgG1) VH: QLQLQESGPGLVKPSETLSLTCTVSGGSISSSSYYWGWIRQPPGKGLEWIGSIYYSGSTYYNPSLKSRVTISVDTSKNQFSLKLSSVTAADTAVYYCARLPIYYDSSGYFDYHGMDVWGQGTTVTVSS VL: EIVLTQSPATLSLSPGERATLSCRASQSVSSYLAWYQQKPGQAPRLLIYDASNRATGIPARFSGSGSGTDFTLTISSLEPEDFAVYYCQQHANHPPTFGGGTKVEIK 39.4

# Percent RBC Binding to CD33 lookup, item C-24 (antibody, V domains shown, human IgG1) VH: QVQLVQSGAEVKKPGASVKVSCKASGYTFTSYYMHWVRQAPGQGLEWMGVINPSGGSTSYAQKFQGRVTMTRDTSTSTVYMELSSLRSEDTAVYYCARESQYYDVHGMDVWGQGTTVTVSS VL: DIQMTQSPSSLSASVGDRVTITCRASQSISSYLNWYQQKPGKAPKLLIYAASSLQSGVPSRFSGSGSGTDFTLTISSLQPEDFATYYCQQSVTPPLTFGGGTKVEIK 13

# Percent RBC Binding to CD33 lookup, item C-72 (antibody, V domains shown, human IgG1) VH: QVQLVESGGGVVQPGRSLRLSCAASGFTFSSYGMHWVRQAPGKGLEWVAVIWYDGSNKYYADSVKGRFTISRDNSKNTLYLQMNSLRAEDTAVYYCAKEGGTYSDDFDLWGGGTLVTVSS VL: DIQMTQSPSSVSASVGDRVTITCRASQGISSWLAWYQQKPGKAPKLLIYAASSLQSGVPSRFSGSGSGTDFTLTISSLQPEDFATYYCQQASSFPLTFGGGTKVEIK 36.2

# Percent RBC Binding to CD33 lookup, item C-42 (antibody, V domains shown, human IgG1) VH: QLQLQESGPGLVKPSETLSLTCTVSGGSISSSSYYWGWIRQPPGKGLEWIGSIYYSGSTYYNPSLKSRVTISVDTSKNQFSLKLSSVTAADTAVYYCAREPIYRRGMDVWGQGTTVTVSS VL: EIVLTQSPATLSLSPGERATLSCRASQSVSSYLAWYQQKPGQAPRLLIYDASNRATGIPARFSGSGSGTDFTLTISSLEPEDFAVYYCQQFSNYPTFGGGTKVEIK 21.2

# Percent RBC Binding to CD33 lookup, item C-91 (antibody, V domains shown, human IgG1) VH: EVQLVESGGGLVQPGGSLRLSCAASGFTFSSYWMSWVRQAPGKGLEWVANIKSDGSEKYYVDSVKGRFTISRDNAKNSLYLQMNSLRAEDTAVYYCARDVGGDYSGSDLASYWGQGTLVTVSS VL: DIQMTQSPSSLSASVGDRVTITCRASQSISSYLNWYQQKPGKAPKLLIYAASSLQSGVPSRFSGSGSGTDFTLTISSLQPEDFATYYCQQGYDPPLTFGGGTKVEIK 17.6

# Percent RBC Binding to CD33 lookup, item C-90 (antibody, V domains shown, human IgG1) VH: EVQLVESGGGLVQPGGSLRLSCAASGFTFSSYWMSWVRQAPGKGLEWVANINQDGSEKYYVDSVKGRFTISRDNAKNSLYLQMNSLRAEDTAVYYCAREAGAVTGYRWFDPWGQGTLVTVSS VL: DIQMTQSPSSLSASVGDRVTITCRASQSISSYLNWYQQKPGKAPKLLIYGASSLQSGVPSRFSGSGSGTDFTLTISSLQPEDFATYYCQQQYLTPLTFGGGTKVEIK 17.2

# Percent RBC Binding to CD33 lookup, item C-38 (antibody, V domains shown, human IgG1) VH: QLQLQESGPGLVKPSETLSLTCTVSGGSISSSSYYWGWIRQPPGKGLEWIGSIYYSGSTYYNPSLKSRVTISVDTSKNQFSLKLSSVTAADTAVYYCAREATAAADHPGMDVWGQGTTVTVSS VL: DIQMTQSPSSLSASVGDRVTITCQASQDITNYLNWYQQKPGKAPKLLIYDASNLETGVPSRFSGSRSGTDFTFTISSLQPEDIATYYCQQYHDFPTFGGGTKVEIK 15.6

# Percent RBC Binding to CD33 lookup, item C-44 (antibody, V domains shown, human IgG1) VH: QLQLQESGPGLVKPSETLSLTCTVSGGSISSSSYAWGWIRQPPGKGLEWIGSIYYSGSTYYNPSLKSRVTISVDTSKNQFSLKLSSVTAADTAVYYCAREGYVAAYGMDVWGQGTTVTVSS VL: DIQMTQSPSSLSASVGDRVTITCRASQSISSYLNWYQQKPGKAPKLLIYAASSLQSGVPSRFSGSGSGTDFTLTISSLQPEDFATYYCQQAYYPPWTFGGGTKVEIK 13.3

# Percent RBC Binding to CD33 lookup, item C-12 (antibody, V domains shown, human IgG1) VH: EVQLLESGGGLVQPGGSLRLSCAASGFTFSNYAMSWVRQAPGKGLEWVSAISGSGGSTYYADSVKGRFTISRDNSKNTLYLQMNSLRAEDTAVYYCARDGSRYSYGLVAYGMDVWGQGTTVTVSS VL: EIVLTQSPGTLSLSPGERATLSCRASQSVSSSFLAWYQQKPGQAPRLLIYGASSRATGIPDRFSGSGSGTDFTLTISRLEPEDFAVYYCQQSQLRPTFGGGTKVEIK 6.34

# Percent RBC Binding to CD33 lookup, item C-26 (antibody, V domains shown, human IgG1) VH: QLQLQESGPGLVKPSETLSLTCTVSGGSISSNSYYWGWIRQPPGKGLEWIGSIYYSGSTYYNPSLKSRVTISVDTSKNQFSLKLSSVTAADTAVYYCARSPVYYDSSGYFQYYGMDVWGQGTTVTVSS VL: EIVLTQSPATLSLSPGERATLSCRASQSVSSYLAWYQQKPGQAPRLLIYDASKRATGIPARFSGSGSGTDFTLTISSLEPEDFAVYYCQQSIVWPPFTFGGGTKVEIK 19.2

This collection of values is drawn from patent US20220281976A1.
